Where these numbers come from: PubChem BioAssay AID1063

protocolText: Leishmania major promastigote growth inhibition, primary screen (AID 1063);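 note: promastigotes grown with compound for 44 hours at 28 °C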
statedConditions: Leishmania major promastigotes, resazurin fluorescence viability; at 10 µM
In all, about 200,000 compounds went through this assay and about 18,000 (9%) were called active. Cut-off read from the data, not from the text of the source: active = inhibition above about 50%; inactive = the rest. Only a selection was taken, and actives are over-represented in it overall.
Labels: True = active, False = inactive

> print(dat)
                                    compound  discretelabel
 1  CN(C)CCCN=Cc1c(O)n(Cc2ccco2)c(=O)[nH]c1=O          False
 2  O=C1NC(=O)N(c2ccccc2)C(=O)/C1=C/c1ccc([N+](=O)[O-])s1           True
 3  O=C(CN1CCCCC1)Nc1ccc(Br)cc1C(=O)c1ccccc1Cl          False
 4  CC(=NCc1ccc2c(c1)OCO2)c1c(O)[nH]c(=O)[nH]c1=O          False
 5  CSC1=NP(=S)(SC)N(C)c2nc3n(c21)CCC3 (stereo unspecified)          False
 6      Cn1c(O)c(C=NCCN2CCNCC2)c(=O)n(C)c1=O          False
 7  COc1ccc(C(=O)C2CCCN(Cc3ccc(C)s3)C2)cc1OC (stereo unspecified)           True
 8  C[N+]1(C)CCOC(O)(c2ccc(-c3ccc(C4(O)C[N+](C)(C)CCO4)cc3)cc2)C1 (stereo unspecified)          False
 9  CCOC(=O)c1c(N)n(Cc2ccccc2)c2nc3ccccc3nc12           True
10  CCOC(=O)C(O)(c1ccc(NC(=O)c2ccco2)c(OC)c1)C(F)(F)F (stereo unspecified)           True
11      O=C(Nc1cccc2ccccc12)N1CCC2(CC1)OCCO2          False
12  c1ccc2sc(C3CCCNC3)nc2c1 (stereo unspecified)          False
13  C=CCN1C(=O)C2(C(C(=O)OCC)=C(N)Oc3c2c(=O)oc2ccccc32)c2ccccc21 (stereo unspecified)          False
14              CCOCCc1c(O)[nH]c(=S)[nH]c1=O          False
15  N#Cc1ccc(Cn2cc(C(=O)c3ccco3)c3ccccc32)cc1           True
16    O=C(Nc1cccc(OC(=O)N2CCCCC2)c1)N1CCOCC1          False
17  COc1ccc(CN2C(=O)NC(=O)/C(=C\c3ccc(OC)c(OC)c3OC)C2=O)cc1          False
18  CC[N+]1(C)CCCC(OC(=O)C(O)(c2ccccc2)c2ccccc2)C1 (stereo unspecified)          False
19      CN(C)C(=O)Oc1cc(=O)n2c3c(cccc13)CCC2          False
20    COC(=O)COc1cc(C)cc2oc(=O)c3c(c12)CCCC3          False
21  O=C(Cn1c(=O)n(CC2CS2)c2ccccc21)N1CCCCC1 (stereo unspecified)          False
